Biological target: Androgen receptor (Homo sapiens, UniProt P10275)
Sequence (P10275 whole entry): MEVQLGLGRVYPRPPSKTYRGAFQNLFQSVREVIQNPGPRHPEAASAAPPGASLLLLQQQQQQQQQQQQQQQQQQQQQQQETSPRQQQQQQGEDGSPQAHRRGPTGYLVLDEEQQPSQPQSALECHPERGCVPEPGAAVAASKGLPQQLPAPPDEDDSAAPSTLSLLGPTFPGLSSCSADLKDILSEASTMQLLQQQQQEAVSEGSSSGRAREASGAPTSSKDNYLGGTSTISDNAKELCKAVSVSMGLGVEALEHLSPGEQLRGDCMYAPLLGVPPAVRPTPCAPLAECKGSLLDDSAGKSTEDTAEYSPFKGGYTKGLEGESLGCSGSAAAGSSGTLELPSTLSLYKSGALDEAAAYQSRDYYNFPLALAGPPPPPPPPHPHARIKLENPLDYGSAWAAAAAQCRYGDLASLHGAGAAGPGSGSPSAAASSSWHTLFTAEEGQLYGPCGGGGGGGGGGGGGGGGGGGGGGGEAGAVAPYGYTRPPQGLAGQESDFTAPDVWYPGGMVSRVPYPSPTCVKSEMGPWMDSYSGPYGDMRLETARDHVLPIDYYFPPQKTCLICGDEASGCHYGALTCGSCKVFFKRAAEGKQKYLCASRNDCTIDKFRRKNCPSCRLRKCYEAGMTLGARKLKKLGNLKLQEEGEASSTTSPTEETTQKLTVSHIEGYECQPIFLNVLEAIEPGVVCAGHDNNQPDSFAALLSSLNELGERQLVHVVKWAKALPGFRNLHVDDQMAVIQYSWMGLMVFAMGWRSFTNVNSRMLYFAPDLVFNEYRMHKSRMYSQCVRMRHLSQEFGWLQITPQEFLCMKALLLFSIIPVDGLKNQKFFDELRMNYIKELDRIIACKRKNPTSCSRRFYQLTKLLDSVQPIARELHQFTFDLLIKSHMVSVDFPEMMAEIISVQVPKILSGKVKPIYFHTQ
measured quantity: IC50

The recorded IC50 for N#Cc1ccc(N2N=C(c3ccc(C(=O)O)cc3)C[C@@H]2C2CCCC2)cc1Cl is > 10 µM

* * *

The next entries give measured pIC50 for Mineralocorticoid receptor (Homo sapiens, UniProt P08235).
In plain terms, pIC50 is the concentration in mol/L turned into minus its base-10 logarithm.

Previously resolved entries follow.
The recorded pIC50 for N#Cc1ccc(N2N=C3c4ccc(C(=O)O)cc4CO[C@@H]3[C@@H]2C2CCCC2)cc1Cl (stereo in doubt) is 7.19

The recorded pIC50 for COCc1cc(N2N=C3c4ccc(C(=O)O)cc4CC[C@@H]3[C@@H]2C2CCCC2)ccc1C#N is 6.82

The recorded pIC50 for N#Cc1ccc(N2N=C3c4ccc(C(=O)O)cc4CC[C@@H]3[C@@H]2C2C=CC=CO2)cc1Cl (mixture of isomers) is 6.90

The recorded pIC50 for N#Cc1ccc(N2N=C(c3ccc(C(=O)O)cc3)C[C@@H]2c2ccc(F)cc2)cc1 is 7.00

The recorded pIC50 for CN(C)CCN(C)C(=O)c1ccc(C2=NN(c3ccc(C#N)cc3)C(c3ccc(F)cc3)C2)cc1 (racemic) is 7.08

---
The recorded pIC50 for N#Cc1ccc(N2N=C(c3ccc(CC(=O)O)cc3)C[C@@H]2C2CCCC2)cc1Cl is 6.87

The measured values listed here are drawn from ChEMBL document CHEMBL1212897.
